src = ChEMBL document CHEMBL2021854

System: HeLa
Assay: Cytotoxicity against human HeLa cells assessed as cell viability by colorimetric formazan-based MTS assay
Listing: log10(CC50) of selected compounds
observed_property: log10(CC50) (log10 of the value in µM)

compound	meas_value
Cc1nc(NCCCNc2ccnc3cc(Cl)ccc23)nc(-c2cccc([N+](=O)[O-])c2)c1C(=O)OC(C)C	0.02
Cc1nc(NCCNc2ccnc3cc(Cl)ccc23)nc(-c2ccccc2[N+](=O)[O-])c1C(=O)OC(C)C	1.39
Nc1nc(O)c2ncn(COC(CO)CO)c2n1 [GANCICLOVIR]	2.35
CCOC(=O)c1c(C)nc(NCCCNc2ccnc3cc(Cl)ccc23)nc1C	1.24
CCOC(=O)c1c(C)nc(NCCCNc2ccnc3cc(Cl)ccc23)nc1-c1ccccc1	0.85
